Just for reference, patent US20220402995A1 is where these values come from.

# Measured Target: T1, VLP2 (virus-like particles of AAV2) (AAV2, UniProt P03135 1-735; P03135 1-598; P03135 1-533)
# T1 construct: Empty AAV2 capsid; background says about 60 protein molecules, VP1:VP2:VP3 = 1:1:10; Immobilised on the ELISA plate
# T1 sequence (P03135 whole entry, chain 1 of 3): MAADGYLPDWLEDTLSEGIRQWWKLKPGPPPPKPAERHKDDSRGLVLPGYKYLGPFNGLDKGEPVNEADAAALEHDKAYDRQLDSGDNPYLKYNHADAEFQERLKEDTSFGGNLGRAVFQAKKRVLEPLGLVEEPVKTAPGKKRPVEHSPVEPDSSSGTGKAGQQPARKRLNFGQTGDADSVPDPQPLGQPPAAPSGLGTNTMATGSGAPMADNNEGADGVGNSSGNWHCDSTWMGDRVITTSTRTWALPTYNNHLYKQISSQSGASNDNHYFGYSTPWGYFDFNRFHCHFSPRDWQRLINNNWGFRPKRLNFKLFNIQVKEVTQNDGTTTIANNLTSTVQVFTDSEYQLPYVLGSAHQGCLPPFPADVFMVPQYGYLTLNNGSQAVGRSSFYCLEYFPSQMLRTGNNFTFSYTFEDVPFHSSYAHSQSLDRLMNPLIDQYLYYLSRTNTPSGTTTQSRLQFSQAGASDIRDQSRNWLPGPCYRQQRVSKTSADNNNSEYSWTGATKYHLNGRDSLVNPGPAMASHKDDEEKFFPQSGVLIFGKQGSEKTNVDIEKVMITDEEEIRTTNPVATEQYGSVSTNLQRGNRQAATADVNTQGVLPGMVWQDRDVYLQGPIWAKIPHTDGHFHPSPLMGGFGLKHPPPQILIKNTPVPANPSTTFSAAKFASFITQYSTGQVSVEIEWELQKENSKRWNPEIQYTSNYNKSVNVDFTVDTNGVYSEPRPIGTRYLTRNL
# T1 sequence (P03135 139-735, tags left off, chain 2 of 3): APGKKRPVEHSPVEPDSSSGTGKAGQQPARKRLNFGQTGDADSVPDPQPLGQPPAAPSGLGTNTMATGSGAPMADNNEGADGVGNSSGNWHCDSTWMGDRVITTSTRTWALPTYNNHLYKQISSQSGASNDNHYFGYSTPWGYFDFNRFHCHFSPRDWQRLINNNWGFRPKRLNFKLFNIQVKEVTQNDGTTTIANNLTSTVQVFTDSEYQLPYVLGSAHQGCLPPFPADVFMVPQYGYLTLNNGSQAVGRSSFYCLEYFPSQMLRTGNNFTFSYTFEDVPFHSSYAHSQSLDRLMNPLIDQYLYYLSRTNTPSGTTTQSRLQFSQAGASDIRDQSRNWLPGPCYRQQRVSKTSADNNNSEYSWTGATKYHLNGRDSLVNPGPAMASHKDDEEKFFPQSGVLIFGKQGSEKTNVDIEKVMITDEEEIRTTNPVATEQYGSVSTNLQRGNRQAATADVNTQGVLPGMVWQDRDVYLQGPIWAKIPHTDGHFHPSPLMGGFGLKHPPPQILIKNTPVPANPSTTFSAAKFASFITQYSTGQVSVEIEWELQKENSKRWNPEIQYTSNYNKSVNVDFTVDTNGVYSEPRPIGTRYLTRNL
# T1 sequence (P03135 203-735, chain 3 of 3): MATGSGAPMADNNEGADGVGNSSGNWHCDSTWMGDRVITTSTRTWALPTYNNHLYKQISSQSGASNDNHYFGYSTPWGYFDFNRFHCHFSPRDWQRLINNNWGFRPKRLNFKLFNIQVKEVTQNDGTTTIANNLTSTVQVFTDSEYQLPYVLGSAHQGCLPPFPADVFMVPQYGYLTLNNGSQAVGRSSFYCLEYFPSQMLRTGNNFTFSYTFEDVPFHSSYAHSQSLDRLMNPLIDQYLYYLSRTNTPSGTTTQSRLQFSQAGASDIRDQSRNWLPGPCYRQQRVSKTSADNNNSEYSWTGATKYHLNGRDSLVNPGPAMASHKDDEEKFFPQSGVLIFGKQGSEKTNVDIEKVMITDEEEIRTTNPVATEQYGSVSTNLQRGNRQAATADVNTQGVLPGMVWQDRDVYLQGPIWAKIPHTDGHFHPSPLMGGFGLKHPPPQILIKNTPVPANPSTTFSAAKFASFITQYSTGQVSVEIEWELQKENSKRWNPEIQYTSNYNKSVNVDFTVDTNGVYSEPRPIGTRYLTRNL
# Assay Method Text: ELISA on VLP2; A450 after 66.1°C 15 min / untreated
Measure: Residual activity [%] (%)

Binder: AAV-binding protein No. 30 (Glu340Gly, Tyr342Cys) (receptor) MGSAGESVQITLPKNEVQLNAYVLQEPPKGGTCTYDWQLITHPRDYSGEMEGKHSQILKLSKLTPGLYEFKVIVEGQNAHGEGYVNVTVKPEPRKNRPPIAIVSPQFQEISLPTTSTVIDGSQSTDDDKIVQYHWEELKGPLREEKISEDTAILKLSKLVPGNYTFSLTVVDSDGATNSTTANLTVNKAVDHHHHHH
Observed Result: 52.4

Binder: wild-type AAV-binding protein (extracellular domains 1 and 2, PKD1 and PKD2, of KIAA0319L/AAVR, positions 312-500 of SEQ ID NO: 1, with His tag) (receptor, Expressed in E. coli; tested as extract, culture supernatant or purified protein; also called wild-type AVR; product of pET-AAVRD2) MGSAGESVQITLPKNEVQLNAYVLQEPPKGETYTYDWQLITHPRDYSGEMEGKHSQILKLSKLTPGLYEFKVIVEGQNAHGEGYVNVTVKPEPRKNRPPIAIVSPQFQEISLPTTSTVIDGSQSTDDDKIVQYHWEELKGPLREEKISEDTAILKLSKLVPGNYTFSLTVVDSDGATNSTTANLTVNKAVDHHHHHH
Observed Result: 9.6

Binder: AAV-binding protein No. 53 (Asp354Gly, Leu369Gln, Lys455Arg) (receptor) MGSAGESVQITLPKNEVQLNAYVLQEPPKGETYTYDWQLITHPRGYSGEMEGKHSQILKQSKLTPGLYEFKVIVEGQNAHGEGYVNVTVKPEPRKNRPPIAIVSPQFQEISLPTTSTVIDGSQSTDDDKIVQYHWEELKGPLREERISEDTAILKLSKLVPGNYTFSLTVVDSDGATNSTTANLTVNKAVDHHHHHH
Observed Result: 23.5

Binder: AAV-binding protein No. 36 (Tyr355His, Asn387Ser) (receptor) MGSAGESVQITLPKNEVQLNAYVLQEPPKGETYTYDWQLITHPRDHSGEMEGKHSQILKLSKLTPGLYEFKVIVEGQSAHGEGYVNVTVKPEPRKNRPPIAIVSPQFQEISLPTTSTVIDGSQSTDDDKIVQYHWEELKGPLREEKISEDTAILKLSKLVPGNYTFSLTVVDSDGATNSTTANLTVNKAVDHHHHHH
Observed Result: 51

Binder: AAV-binding protein No. 16 (Leu369Gln) (receptor) MGSAGESVQITLPKNEVQLNAYVLQEPPKGETYTYDWQLITHPRDYSGEMEGKHSQILKQSKLTPGLYEFKVIVEGQNAHGEGYVNVTVKPEPRKNRPPIAIVSPQFQEISLPTTSTVIDGSQSTDDDKIVQYHWEELKGPLREEKISEDTAILKLSKLVPGNYTFSLTVVDSDGATNSTTANLTVNKAVDHHHHHH
Observed Result: 20.3

Binder: AAV-binding protein No. 9 (Pro352Leu) (receptor) MGSAGESVQITLPKNEVQLNAYVLQEPPKGETYTYDWQLITHLRDYSGEMEGKHSQILKLSKLTPGLYEFKVIVEGQNAHGEGYVNVTVKPEPRKNRPPIAIVSPQFQEISLPTTSTVIDGSQSTDDDKIVQYHWEELKGPLREEKISEDTAILKLSKLVPGNYTFSLTVVDSDGATNSTTANLTVNKAVDHHHHHH
Observed Result: 46.5
